Data credit: patent US12448394B2

Known IC50 of a selection of compounds
Target: FLT3-D835Y mutant kinase (Homo sapiens, UniProt P36888, D835Y)
Construct: purchased SignalChem
Sequence (P36888 27-993 D835Y): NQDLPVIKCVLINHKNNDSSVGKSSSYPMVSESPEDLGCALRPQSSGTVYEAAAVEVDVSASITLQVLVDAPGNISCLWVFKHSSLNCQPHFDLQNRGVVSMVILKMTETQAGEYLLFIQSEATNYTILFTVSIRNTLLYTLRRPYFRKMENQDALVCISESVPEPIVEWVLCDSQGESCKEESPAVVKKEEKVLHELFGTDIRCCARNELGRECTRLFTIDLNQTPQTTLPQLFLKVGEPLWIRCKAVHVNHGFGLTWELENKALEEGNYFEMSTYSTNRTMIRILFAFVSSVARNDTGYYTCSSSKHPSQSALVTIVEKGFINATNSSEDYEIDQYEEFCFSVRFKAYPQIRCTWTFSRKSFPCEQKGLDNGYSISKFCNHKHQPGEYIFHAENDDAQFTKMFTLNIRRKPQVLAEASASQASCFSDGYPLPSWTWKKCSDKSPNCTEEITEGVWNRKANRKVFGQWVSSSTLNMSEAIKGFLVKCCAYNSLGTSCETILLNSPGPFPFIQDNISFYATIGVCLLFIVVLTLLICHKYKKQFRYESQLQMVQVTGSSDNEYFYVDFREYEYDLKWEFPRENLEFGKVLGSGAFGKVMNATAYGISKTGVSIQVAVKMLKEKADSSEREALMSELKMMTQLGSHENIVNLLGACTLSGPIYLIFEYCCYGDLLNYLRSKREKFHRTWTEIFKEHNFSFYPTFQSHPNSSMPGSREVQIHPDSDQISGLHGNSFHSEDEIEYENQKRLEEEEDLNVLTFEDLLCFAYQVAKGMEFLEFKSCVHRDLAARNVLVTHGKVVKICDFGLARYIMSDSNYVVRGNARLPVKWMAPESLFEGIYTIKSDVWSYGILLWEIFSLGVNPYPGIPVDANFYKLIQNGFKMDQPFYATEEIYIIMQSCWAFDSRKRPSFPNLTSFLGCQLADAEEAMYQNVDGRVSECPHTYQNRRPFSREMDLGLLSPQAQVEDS
Assay: FLT3-D835Y mutant kinase assay (AlphaScreen)
Format: biochemical
Details: read-out: Ranking of IC50 values, FLT3-D835Y
Protocol: Inhibition of FLT3-D835Y mutant kinase activity by a test compound disclosed herein was estimated by AlphaScreen (PerkinElmer). […] Analysis of resulting product using an AlphaScreen kit and counted with Enspire Alpha (PerkinElmer). […] The IC50 values of inhibitors were determined after carrying out assays with each compound at serially diluted concentrations in duplication. The results were analyzed using linear regression software (GraphPad Prism 5; GraphPad Software Inc.)

The following compounds have reported results that may help.
{"compound": "CN(C)c1ccc(-c2cc3c(s2)Cc2c(-c4ccc5cnn(C)c5c4)n[nH]c2-3)cn1 [Compound 5]", "target-or-test-system": "FLT3-D835Y mutant kinase (Homo sapiens, UniProt P36888, D835Y)", "IC50": "1 to 10 nM"}
{"compound": "Cn1ncc2ccc(-c3n[nH]c4c3Cc3sc(C5CCN(C(=O)OC(C)(C)C)CC5)cc3-4)cc21 [Compound 58]", "target-or-test-system": "FLT3-D835Y mutant kinase (Homo sapiens, UniProt P36888, D835Y)", "IC50": "1 to 10 nM"}
{"compound": "c1cc(-c2cc3c(s2)Cc2c(-c4ccc5cn[nH]c5c4)n[nH]c2-3)ccc1CN1CCOCC1 [Compound 6]", "target-or-test-system": "FLT3-D835Y mutant kinase (Homo sapiens, UniProt P36888, D835Y)", "IC50": "< 1 nM"}
{"compound": "Cn1ncc2ccc(-c3n[nH]c4c3Cc3sc(-c5ccc(CN6CCCCC6=O)cc5)cc3-4)cc21 [Compound 61]", "target-or-test-system": "FLT3-D835Y mutant kinase (Homo sapiens, UniProt P36888, D835Y)", "IC50": "< 1 nM"}
{"compound": "Cn1ncc2ccc(-c3n[nH]c4c3Cc3sc(-c5cccc(C(=O)N6CCOCC6)c5)cc3-4)cc21 [Compound 37]", "target-or-test-system": "FLT3-D835Y mutant kinase (Homo sapiens, UniProt P36888, D835Y)", "IC50": "1 to 10 nM"}

Query :: Check the records and state IC50 for CC1C(=O)N(C)CCN1Cc1ccc(-c2cc3c(s2)Cc2c(-c4ccc5cnn(C)c5c4)n[nH]c2-3)cc1 (stereo not drawn) [Compound 65]
Result :: < 1 nM

Query :: Check the records and state IC50 for Cn1ncc2ccc(-c3n[nH]c4c3Cc3sc(-c5ccc(CN6CCOCC6)cc5F)cc3-4)cc21 [Compound 32]
Result :: < 1 nM
